biological target: human FLAP (Homo sapiens (Human)); test: FLAP binding assay (HTRF format); conditions: human FLAP wild type, HTRF format; average of two plates, duplicates
Structures can show the parent of a compound that is named as a salt.
assay_metric: Ki (nM)

Field: example entries. Status: answers known.
Nc1cnc(-c2ccc(-c3ccccc3S(=O)(=O)N3CCC(c4c[nH]cn4)CC3)cc2F)cn1 : 1
CC(C)(C)NS(=O)(=O)c1ccccc1-c1ccc(-c2cnc(N)cn2)c(F)c1 : 1
Nc1cnc(-c2ccc(-c3ccccc3S(=O)(=O)N3C[C@H](O)[C@@H](N4CCCC4)C3)cc2F)cn1 (racemic) : 19
Nc1cnc(-c2ccc(-c3ccccc3Sc3ncncc3N)cc2F)cn1 [Example 217, hydrochloride] : 1

[P] Nc1ncc(-c2ccc(-c3ccccc3S(=O)(=O)N3CCNCC3)cc2F)cn1 [Example 290, trifluoroacetic acid salt]
[Q] Nc1ncc(-c2ccc(-c3ccccc3Sc3ncccn3)cc2F)cn1 [Example 332, hydrochloride]
[R] Nc1cnc(-c2ccc(-c3ccccc3S(=O)(=O)N3CCC(n4cn[nH]c4=O)CC3)cc2F)cn1
## Task Please produce an ascending ranking of these molecules based on Ki. Submit the labels in the order that the ranking request calls for.
## Result R, Q, P
(R: 4 nM, Q: 65 nM, P: 940 nM)

====

target: human FLAP (Homo sapiens (Human)); assay: FLAP binding assay (HTRF format); details: wild type FLAP, HTRF format
assay_metric: Ki (nM)

Nc1cnc(-c2ccc(-c3cccnc3OC3CCCC3)cc2F)cn1 : 92
Nc1cnc(-c2ccc(-c3ccccc3S(=O)(=O)c3cc(N)ncn3)cc2F)cn1 : 904
Nc1cnc(-c2ccc(-c3ccccc3-c3cnc(N)cn3)cc2F)cn1 : 12.7
C[Si](C)(C)CCOCOc1cc(C(F)(F)F)ccc1-c1ccc(-c2cnc(N)nc2)c(F)c1 : 147

[a] CN(C)S(=O)(=O)c1ccccc1-c1ccc(-c2cnc(N)cn2)cc1
[b] Nc1cnc(-c2ccc(-c3ccccc3C(=O)N3CCC(O)CC3)cc2F)cn1
## Task Decide: a or b , by lowest recorded Ki. // return label of chosen record
## Result b
(b: 132 nM, a: 370 nM)

====

biological target: human FLAP (Homo sapiens (Human)); test: FLAP binding assay (HTRF format); conditions: wild type FLAP, HTRF format
assay_metric: Ki (nM)

Before answering, review these 6 worked examples.
N#Cc1nc(N)ccc1-c1ccc(-c2ccccc2S(=O)(=O)C2CC2)cc1F : 343
CC(C)Sc1ncccc1-c1ccc(-c2cnc(N)cn2)c(F)c1 : 8
Nc1cc(-c2ccc(-c3ccccc3S(=O)(=O)NC3(CO)CCCC3)cc2F)cc2cc[nH]c12 : 3
N#Cc1ccc(Oc2ccccc2-c2ccc(-c3cnc(N)cn3)c(F)c2)nc1 : 6.2
Nc1cnc(-c2ccc(-c3ccccc3OCC(F)(F)F)cc2F)cn1 : 78
Cc1nccc(Oc2ccccc2-c2ccc(-c3cnc(N)nc3)c(F)c2)n1 : 107

[1] Nc1ncc(-c2ccc(-c3cccnc3S(=O)(=O)C3CCS(=O)(=O)CC3)cc2F)cn1
[2] Nc1ncc(-c2ccc(-c3ccccc3N3CCCS3(=O)=O)cc2F)cn1
## Task Pick one: 1 or 2 . Which one has the lower reported Ki? Write the label of whichever entry you select.
## Result 1
(1: 40.5 nM, 2: 210 nM)

====

molecular target: human FLAP (Homo sapiens (Human), UniProt P20292); assay: FLAP binding assay (HTRF format); conditions: wild type FLAP, HTRF format
Sequence (P20292 whole entry): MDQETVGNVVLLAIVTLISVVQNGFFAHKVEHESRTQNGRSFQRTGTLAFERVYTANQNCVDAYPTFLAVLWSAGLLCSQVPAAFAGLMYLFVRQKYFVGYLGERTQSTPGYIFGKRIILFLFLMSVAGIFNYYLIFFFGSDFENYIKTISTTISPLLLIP
pKi: −log10 of the molar value.
assay_metric: pKi

Study these solved cases before continuing.
Nc1cnc(-c2ccc(-c3cccnc3OC3CCOCC3)cc2F)cn1 : 7.76
CNC(=O)C1CN(S(=O)(=O)c2ccccc2-c2ccc(-c3cnc(N)nc3)c(F)c2)C1 : 7.06
NC(=O)c1ccccc1-c1ccc(-c2cnc(N)cn2)c(F)c1 : 5.60
CC(C)(CO)CNS(=O)(=O)c1ccccc1-c1ccc(-c2ncc(N)nc2C#N)c(F)c1 : 8.62
C[C@H](CO)NS(=O)(=O)c1ccccc1-c1ccc(-c2cnc(N)nc2)nc1 : 6.17

[A] CCN(c1ccccc1-c1ccc(-c2cnc(N)cn2)c(F)c1)S(C)(=O)=O
[B] CC(C)S(=O)(=O)Cc1ccccc1-c1ccc(-c2cnc(N)cn2)c(F)c1
## Task So which one has the bigger pKi here, A or B ? Reply briefly: the label of your chosen item.
## Result A
(A: 7.72, B: 7.09)

====

target: human FLAP (Homo sapiens (Human), UniProt P20292); assay: FLAP binding assay (HTRF format); details: human FLAP wild type, HTRF format; average of two plates, duplicates
Where a name gives a salt, the structure may show the parent alone.
assay_metric: Ki (nM)

Nc1ncc(-c2ccc(-c3ccccc3S(=O)(=O)N3CCOCC3)cc2F)cn1 [Example 303, trifluoroacetic acid salt] : 612
Nc1cnc(-c2ccc(-c3ccccc3S(=O)(=O)NCC3CCC3)cc2F)cn1 [Example 9] : 3
Nc1cnc(-c2ccc(-c3ccccc3S(=O)(=O)NCCCCCCO)cc2F)cn1 [Example 133] : 1
CCC(C)(C)NS(=O)(=O)c1ccccc1-c1ccc(-c2cnc(N)cn2)c(F)c1 [Example 12] : 2
C[C@@H](CO)NS(=O)(=O)Cc1ccccc1-c1ccc(-c2cnc(N)cn2)c(F)c1 [Example 224] : 293

[a] Nc1cnc(-c2ccc(-c3ccccc3S(=O)(=O)N[C@@H](CO)[C@@H](O)c3ccccc3)cc2F)cn1 [Example 78]
[b] CN(C)S(=O)(=O)c1ccccc1-c1ccc(-c2cnc(N)cn2)c(F)c1 [Example 42]
## Task Form: Entry with minimum Ki (choose one): a / b Identify your pick by its label.
## Result a
(a: 1 nM, b: 11 nM)

====

molecular target: human FLAP (Homo sapiens (Human), UniProt P20292); test: FLAP binding assay (HTRF format); conditions: human FLAP wild type, HTRF format; average of two plates, duplicates
assay_metric: Ki (nM)

Nc1cnc(-c2ccc(-c3ccc(C(F)(F)F)cc3S(N)(=O)=O)cc2F)cn1 : 2

[P] CCN(CC)S(=O)(=O)c1ccccc1-c1ccc(-c2cnc(N)cn2)c(F)c1
[Q] Nc1cnc(-c2ccc(-c3ccccc3S(=O)(=O)N3CCC[C@H](N)C3)cc2F)cn1
[R] C[C@@H]1CNCCN1S(=O)(=O)c1ccccc1-c1ccc(-c2cnc(N)nc2)c(F)c1
[S] CS(=O)(=O)c1ccccc1-c1ccc(-c2cnc3[nH]ccc3n2)c(F)c1
[T] CNS(=O)(=O)c1ccccc1-c1ccc(-c2cnc(N)cn2)c(F)c1
## Task Order the records by Ki, with each subsequent value no larger than the one before. Reply with the labels, ordered as the question asks.
## Result R, S, T, Q, P

====

molecular target: UniProt P20292; assay: FLAP binding assay (HTRF format); conditions: human FLAP wild type, HTRF format; average of two plates, duplicates
pKi: −log10 of the molar value. Counter-ions that a name gives are not always drawn.
assay_metric: pKi

O=S(=O)(NCCO)c1ccccc1-c1ccc(-c2cnc3[nH]ccc3c2)c(F)c1 [Example 366] : 9.00
Nc1cnc(-c2ccc(-c3ccccc3CS(N)(=O)=O)cc2F)cn1 [Example 230, hydrochloride] : 5.92

[I] CCN(CC)S(=O)(=O)c1ccccc1-c1ccc(-c2cnc3c(c2)OCCN3)c(F)c1 [Example 391]
[II] C[C@H](NS(=O)(=O)c1ccccc1-c1ccc(-c2cnc(N)cn2)c(F)c1)C(=O)O [Example 156]
## Task // pick larger pKi from pair: I vs II Field: selected label. Fill in the label of the entry you choose.
## Result I
(I: 8.70, II: 6.45)

====

target: human FLAP (Homo sapiens (Human)); experiment: FLAP binding assay (HTRF format); conditions: human FLAP wild type, HTRF format; average of two plates, duplicates
pKi: −log10 of the molar value. Structures can show the parent of a compound that is named as a salt.
assay_metric: pKi

Nc1cnc(-c2ccc(-c3ccccc3CS(=O)(=O)N3CC(O)C3)cc2F)cn1 [Example 222, formic acid salt] : 6.93
Nc1cnc(-c2ccc(-c3ccccc3S(=O)(=O)NC3CC3)cc2F)cn1 : 8.22
CS(=O)(=O)c1ccc(CSc2ccccc2-c2ccc(-c3cnc(N)cn3)c(F)c2)cc1 : 8.10
C[C@H](NS(=O)(=O)c1ccccc1-c1ccc(-c2ccc(N)nc2)c(F)c1)C(F)(F)F : 8.30
Nc1ncc(-c2ccc(-c3ccc(C(F)(F)F)cc3S(=O)(=O)N3CCNC(=O)C3)cc2F)cn1 : 7.72
Nc1cnc(-c2ccc(-c3ccccc3CSc3ccncn3)cc2F)cn1 [Example 243, hydrochloride] : 8.52

[A] Nc1cnc(-c2ccc(-c3ccccc3S(=O)(=O)N[C@H](c3ccccc3)C(F)(F)F)cc2F)cn1
[B] Nc1cnc(-c2ccc(-c3ccccc3S(=O)(=O)N3CC[C@H](CO)C3)cc2F)cn1
## Task // compare: A vs B , metric pKi, want the smaller Select an item and report its label.
## Result B
(B: 8.15, A: 8.70)
